# key: entry, value: pIC50
Target: IRAK4 kinase (Homo sapiens (Human))
Sequence (Q9NWZ3 whole entry): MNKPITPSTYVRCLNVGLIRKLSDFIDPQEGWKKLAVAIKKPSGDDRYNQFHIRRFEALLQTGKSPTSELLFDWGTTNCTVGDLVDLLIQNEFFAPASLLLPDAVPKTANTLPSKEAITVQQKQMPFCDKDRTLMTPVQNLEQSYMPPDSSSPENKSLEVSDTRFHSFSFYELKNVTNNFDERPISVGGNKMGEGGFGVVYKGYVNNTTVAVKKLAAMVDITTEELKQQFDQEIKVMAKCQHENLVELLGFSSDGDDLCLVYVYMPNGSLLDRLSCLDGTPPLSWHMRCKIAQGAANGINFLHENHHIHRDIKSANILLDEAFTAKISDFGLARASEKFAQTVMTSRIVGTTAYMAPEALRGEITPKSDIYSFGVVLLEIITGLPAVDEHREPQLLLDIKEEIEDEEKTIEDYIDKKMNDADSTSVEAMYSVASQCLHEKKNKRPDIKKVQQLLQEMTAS
pIC50: −log10 of the molar value.
observed.property: pIC50

INSERT INTO results (compound, recorded_measurement) VALUES
  ('CN(C)C(=O)c1csc(Nc2nc(OC3CCOCC3)c3c(ccn3-c3cnn(C)c3)n2)c1', '≥ 7.00'),
  ('Cn1cc(-n2ccc3nc(Nc4ccc5cn[nH]c5c4)nc(O[C@H]4CCOC4)c32)cn1', '6.00 to 7.00'),
  ('CN(C)C(=O)c1csc(Nc2nc(NC3CCOCC3)c3c(ccn3-c3cnn(C)c3)n2)c1', '6.00 to 7.00'),
  ('Cc1cc(Nc2nc(N[C@@H]3C[C@H](CO)[C@@H](O)[C@H]3O)c3c(ccn3-c3cnn(C)c3)n2)sn1', '≥ 7.00'),
  ('Cn1cc(-n2ccc3nc(Nc4cc5n(c4)CCNC5=O)nc(OC4CCOCC4)c32)cn1', '6.00 to 7.00'),
  ('Cc1cc(Nc2nc(NCCO)c3c(ccn3-c3cnn(C)c3)n2)sn1', '6.00 to 7.00'),
  ('CN(C)C(=O)c1csc(Nc2nc(O[C@H]3CCOC3)c3c(ccn3-c3cnn(C)c3)n2)c1', '≥ 7.00'),
  ('CNC(=O)c1cc(Nc2nc(NC3CCOCC3)c3c(ccn3-c3cnn(C)c3)n2)cs1', '≥ 7.00'),
  ('CN(C)C(=O)c1cc(Nc2nc(NC3CCOCC3)c3c(ccn3-c3cnn(C)c3)n2)cs1', '6.00 to 7.00'),
  ('Cc1cc(Nc2nc(NCCCO)c3c(ccn3-c3cnn(C)c3)n2)sn1', '≥ 7.00'),
  ('Cn1cc(-n2ccc3nc(Nc4cc(C#N)cs4)nc(O[C@H]4CCOC4)c32)cn1', '6.00 to 7.00'),
  ('Cc1cc(Nc2nc(OC3CCOCC3)c3c(ccn3-c3ccoc3)n2)sn1', '6.00 to 7.00'),
  ('Cc1cc(Nc2nc(NC3CCCC3)c3c(ccn3-c3cnn(C)c3)n2)sn1', '6.00 to 7.00'),
  ('Cc1cc(Nc2nc(O[C@@H]3CCOC3)c3c(ccn3-c3cnn(C)c3)n2)sn1', '≥ 7.00'),
  ('CC(=O)N1CCCC(Oc2nc(Nc3cc(C)ns3)nc3ccn(-c4cnn(C)c4)c23)C1 (centres unmarked)', '6.00 to 7.00'),
  ('CCNC(=O)c1cc(Nc2nc(O[C@@H]3CCOC3)c3c(ccn3-c3cnn(C)c3)n2)cs1', '≥ 7.00'),
  ('Cn1cc(-n2ccc3nc(Nc4ccc(N5CCOCC5)cc4)nc(O[C@H]4CCOC4)c32)cn1', '6.00 to 7.00');

* * *

Target: IRAK4 kinase (Homo sapiens (Human))
observed.property: IC50

INSERT INTO measurements (molecule, recorded_measurement) VALUES
  ('CO[C@H]1CC[C@H](Nc2nc(Nc3cc(C)ns3)nc3ccn(-c4cnn(C)c4)c23)CC1', '≤ 100 nM'),
  ('COc1ccc(-n2ccc3nc(Nc4cc(C)ns4)nc(OC4CCOCC4)c32)cc1', '1000 to 10000 nM'),
  ('Cc1cc(Nc2nc(OC3CCS(=O)(=O)CC3)c3c(ccn3-c3cnn(C)c3)n2)sn1', '100 to 1000 nM'),
  ('Cc1cc(Nc2nc(N[C@H]3CC[C@H](O)CC3)c3c(ccn3-c3cccnc3)n2)sn1', '≤ 100 nM'),
  ('Cc1cc(Nc2nc(OC3CCC(O)CC3)c3c(ccn3-c3cnn(C)c3)n2)sn1 (stereo not drawn)', '100 to 1000 nM'),
  ('CCNC(=O)c1csc(Nc2nc(OC3CCCCC3)c3c(ccn3-c3cnn(C)c3)n2)c1', '100 to 1000 nM'),
  ('Cn1cc(-n2ccc3nc(Nc4cc(C(=O)NC5CC5)cs4)nc(O[C@H]4CCOC4)c32)cn1', '≤ 100 nM'),
  ('CCNC(=O)c1csc(Nc2nc(OC3CCOCC3)c3c(ccn3-c3cnn(C)c3)n2)c1', '≤ 100 nM'),
  ('Cn1cc(-n2ccc3nc(Nc4cc(C(=O)N5CCSCC5)cs4)nc(O[C@H]4CCOC4)c32)cn1', '100 to 1000 nM'),
  ('Cc1cc(Nc2nc(OC3CCOCC3)c3c(ccn3-c3cncnc3)n2)sn1', '100 to 1000 nM'),
  ('Cn1cc(-n2ccc3nc(Nc4cc(C(=O)NCCF)cs4)nc(O[C@H]4CCOC4)c32)cn1', '≤ 100 nM'),
  ('Cn1cc(-n2ccc3nc(Nc4ccc5c(c4)CNC5=O)nc(O[C@H]4CCOC4)c32)cn1', '≤ 100 nM');

Where these numbers come from: patent US10562902B2
